Entries and their measured composite z-score follow.
target: Epidermal growth factor receptor (Homo sapiens) (UniProt P00533); experiment: EGFR binders on small-molecule microarrays, primary screen, biochemical, small-molecule microarray, 635 nm fluorescence (AID 1104); settings: EGFR binding, higher = more signal;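 also: score merges 667 nm emission intensity with spot signal to noise over triplicate slides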
Sequence (P00533 whole entry, looked up): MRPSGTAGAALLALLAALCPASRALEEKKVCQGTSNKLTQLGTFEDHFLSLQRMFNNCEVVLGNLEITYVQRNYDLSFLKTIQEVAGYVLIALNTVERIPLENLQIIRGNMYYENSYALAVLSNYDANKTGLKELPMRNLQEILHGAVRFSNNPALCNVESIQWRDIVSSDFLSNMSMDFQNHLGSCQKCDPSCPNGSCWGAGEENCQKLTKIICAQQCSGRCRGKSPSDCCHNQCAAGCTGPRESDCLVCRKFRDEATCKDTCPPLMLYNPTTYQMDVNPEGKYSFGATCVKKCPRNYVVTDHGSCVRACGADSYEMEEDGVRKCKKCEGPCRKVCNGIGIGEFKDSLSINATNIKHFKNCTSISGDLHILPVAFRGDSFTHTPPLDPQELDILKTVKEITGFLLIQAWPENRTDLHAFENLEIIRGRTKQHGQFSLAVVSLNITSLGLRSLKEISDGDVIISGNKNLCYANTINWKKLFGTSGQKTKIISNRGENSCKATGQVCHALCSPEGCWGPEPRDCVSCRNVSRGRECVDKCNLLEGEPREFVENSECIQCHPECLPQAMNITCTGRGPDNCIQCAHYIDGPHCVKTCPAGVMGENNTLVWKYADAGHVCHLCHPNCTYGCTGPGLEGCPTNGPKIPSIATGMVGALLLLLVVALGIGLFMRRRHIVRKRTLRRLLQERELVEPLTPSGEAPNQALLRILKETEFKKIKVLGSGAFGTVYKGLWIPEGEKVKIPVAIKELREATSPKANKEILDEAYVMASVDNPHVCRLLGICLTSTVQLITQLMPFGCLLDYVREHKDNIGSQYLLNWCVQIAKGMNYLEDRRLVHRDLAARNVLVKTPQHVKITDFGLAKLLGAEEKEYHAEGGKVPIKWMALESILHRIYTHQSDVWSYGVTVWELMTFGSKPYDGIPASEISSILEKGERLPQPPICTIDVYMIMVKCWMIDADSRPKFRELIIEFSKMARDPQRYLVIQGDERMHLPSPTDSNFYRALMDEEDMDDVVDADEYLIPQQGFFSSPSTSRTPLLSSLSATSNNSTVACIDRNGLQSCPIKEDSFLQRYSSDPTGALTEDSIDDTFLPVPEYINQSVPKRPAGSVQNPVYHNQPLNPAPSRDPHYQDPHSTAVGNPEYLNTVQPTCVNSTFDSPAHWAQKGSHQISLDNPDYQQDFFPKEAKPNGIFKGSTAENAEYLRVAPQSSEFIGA

Below are worked cases with known answers.
testSmiles: COc1ccc(O[C@H]2C=C[C@@H](c3ccccc3)O[C@@H]2CON=C2[C@H]3CCn4c(=O)n(-c5ccccc5)c(=O)n4[C@H]3[C@H](O)[C@@H]3O[C@H]23)cc1
composite z-score: 0.318

testSmiles: CC(C)=NO[C@H](C)c1cn([C@H](CO)Cc2ccccc2)nn1
composite z-score: 0.17

testSmiles: CC(C)CON=C1C[C@@H](O)[C@@H](O)[C@@H]2[C@@H]3C(=O)N(C[C@@H]4CCCO4)C(=O)[C@@H]3CC[C@@H]12
composite z-score: -0.151

testSmiles: COC(=O)CC=C[C@@H](C)[C@@H](C=NOC[C@H]1O[C@H](c2ccccc2)C=C[C@@H]1Oc1ccc(OC)cc1)NS(=O)(=O)c1ccc(C)cc1
composite z-score: -0.873

testSmiles: C=Cc1ccc([C@H]2N[C@H](C(=O)O)CC[C@@H]2C)cc1
composite z-score: 0.14

## Input Request: composite z-score, test system Epidermal growth factor receptor (Homo sapiens) (UniProt P00533), entry CO[C@H]1COC(=O)CC=C[C@@H](C)[C@H](OC)COC(=O)CCC[C@@H]1C
## Output 0.487

## Input Request: composite z-score, test system Epidermal growth factor receptor (Homo sapiens) (UniProt P00533), entry C[C@@H]1NC(=O)[C@@H](C)COC(=O)[C@H](C)NC(=O)[C@@H](C)COC1=O
## Output 0.401

====

assay: CREB reporter modulators under forskolin, primary screen, cell-based, PC12, CRE-LacZ reporter, forskolin-stimulated (AID 1146); settings: luminescence, 4.5 h, higher = more signal, called active from +8 up or from −8 down;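 also: PC12 cells with 6xCRE LacZ reporter stimulated by forskolin 10 µM; beta-galactosidase reporter signal reflecting CREB driven transcription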
Active and inactive are the calls of the source.
Entries and their measured z-score follow.

testSmiles: O=C(NN=C1C[C@@H](O)[C@@H](O)[C@@H]2[C@@H]3C(=O)N(C[C@@H]4CCCO4)C(=O)[C@@H]3CC[C@@H]12)OCc1ccccc1
z-score: 0.13 (inactive)

## Input Which z-score is reported for this molecule? COc1ccc(COC(=O)NN=C2C[C@@H](O)[C@@H](O)[C@@H]3[C@@H]4C(=O)N(Cc5ccccc5)C(=O)[C@@H]4CC[C@H]23)cc1
## Output -0.0005 (inactive)

## Input Which z-score is reported for this molecule? COc1ccc(O[C@H]2C=C[C@@H](c3ccccc3)O[C@@H]2CON=CC[C@@H]2C=C[C@H](OC(C)=O)[C@@H](COC(C)=O)O2)cc1
## Output 0.222 (inactive)

## Input Which z-score is reported for this molecule? CC(C)(C)N1C(=O)[C@H]2[C@H]3[C@H](O)[C@H](O)CC(=O)[C@H]3CC[C@H]2C1=O
## Output 0.95 (inactive)

====

molecular target: Follistatin-related protein 3 (Homo sapiens); experiment: FSTL3 binders on small-molecule microarrays, primary screen, biochemical, small-molecule microarray, 635 nm fluorescence (AID 1105); conditions: FSTL3 binding, higher = more signal;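 also: score merges emission near 667 nm and signal to noise per printed spot across three slides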
Given measured composite z-score, output Satisfied if it is greater than or equal to 0.7 and Not satisfied if not.

molecule: COC(=O)[C@H](C)NC(=O)CCC1CC(OC(=O)NCCc2ccc(F)cc2)CC2(CCCC(COC(=O)NCCC(C)C)O2)O1 (stereo partly specified)
category: Satisfied

molecule: C=CC1=C[C@H](O)[C@@H]2O[C@@H]2C12OCCCO2
category: Not satisfied

molecule: CON=CC[C@@H]1C=C[C@H](OC(C)=O)[C@@H](COC(C)=O)O1
category: Satisfied

molecule: C[C@@H]1C=CCC(=O)OC[C@H]2O[C@@H](C=C[C@@H]2O)[C@H](C)C=CCC(=O)OC1
category: Satisfied

molecule: C[C@H]1CC[C@H]2C(=O)O[C@H](COc3ccc(C(C)(C)C)cc3)CN2[C@@H]1c1ccc(Br)cc1
category: Not satisfied

## Input API: above_or_equal(metric=composite z-score, cutoff=0.7) for item CCOC(=O)[C@H](CC(C)C)NC(=O)CCC1CC(OC(=O)NCCc2ccc(F)cc2)CC2(CCCC(COC(=O)NCCc3ccccc3OC)O2)O1 (stereo partly specified)
## Output Satisfied

## Input API: above_or_equal(metric=composite z-score, cutoff=0.7) for item COc1cccc([C@H]2Oc3ccc(OC)cc3C(=NOC(C)CN3CCCCc4nc(C)c(C)cc43)[C@@H]2O)c1 (stereo partly specified)
## Output Not satisfied

## Input API: above_or_equal(metric=composite z-score, cutoff=0.7) for item CCOC(=O)[C@H](CC(C)C)NC(=O)CCC1CC(OC(=O)NCc2cccc3ccccc23)CC2(CCCC(COC(=O)NCC3CCCCC3)O2)O1 (stereo partly specified)
## Output Satisfied

## Input API: above_or_equal(metric=composite z-score, cutoff=0.7) for item O=C1CCCC(C2=CCCCC2=O)C1 (stereo unspecified)
## Output Not satisfied

## Input API: above_or_equal(metric=composite z-score, cutoff=0.7) for item CCOC(=O)[C@H](CC(C)C)NC(=O)CCC1CC(OC(=O)NCc2cccc3ccccc23)CC2(CCCC(COC(=O)NCCc3ccc(Cl)cc3)O2)O1 (stereo partly specified)
## Output Satisfied

## Input API: above_or_equal(metric=composite z-score, cutoff=0.7) for item COc1ccc(COC(=O)NN=C2C[C@@H](O)[C@@H](O)[C@@H]3[C@@H]4C(=O)N(C5CCCCC5)C(=O)[C@@H]4CC[C@H]23)cc1
## Output Not satisfied

====

tested on: XIP peptide (Xip251-270) binding; test: small-molecule binders of XIP peptide, primary screen, biochemical, small-molecule microarray, fluorescence 635/667 nm, 0.1 µg/mL protein (AID 1182); conditions: fluorescent protein binding, 635 nm, higher = more signal, called active from +8 up or from −8 down
parameterMeasured: composite z-score
Number only, please.

Below are worked cases with known answers.
testSmiles: O=C1[C@H]2[C@H]3[C@H](O)[C@H](O)CC(=NOC[C@@H](O)COCc4ccco4)[C@@H]3CC[C@H]2C(=O)N1C[C@@H]1CCCO1
composite z-score: 0.0071
//
testSmiles: CO[C@H]1COC(=O)CCC[C@@H](C)[C@H](OC)COC(=O)[C@@H](C)NC(=O)CC=C[C@@H]1C
composite z-score: -0.157
//
testSmiles: Cn1c(=O)n2n(c1=O)[C@H]1[C@H](O)[C@@H]3O[C@@H]3C(=O)[C@H]1CC2
composite z-score: 0.151

## Input Which composite z-score is reported for this compound? CO[C@@H]1COC(=O)CC=C[C@H](C)[C@H](OC)COC(=O)[C@H](C)NC(=O)CC=C[C@H]1C
## Output -0.436

====

target: NADPH oxidase 4 (Homo sapiens); test: NOX4-dependent H2O2 signal modulators, primary screen, NOX inhibitor project, cell-based, HEK293-NOX4, tetracycline-induced, Amplex Red fluorescence (AID 1160); conditions: 45 min, higher = more signal, called active from +8 up or from −8 down
Given measured z-score, output label 1 if it is greater than or equal to -0.4 and label 0 if not.

testSmiles: COc1ccc(O[C@@H]2[C@H](O)CO[C@H]2C=Cc2ccccc2)cc1
category: label 0

## Input API: above_or_equal(metric=z-score, cutoff=-0.4) for item COc1ccc(O[C@@H]2[C@H](O)CO[C@@H]2C=Cc2ccccc2)cc1
## Output label 0

## Input API: above_or_equal(metric=z-score, cutoff=-0.4) for item Cc1cc2c(c(=O)o1)[C@@H](O)[C@H]1O[C@H]1C2=O
## Output label 0

## Input API: above_or_equal(metric=z-score, cutoff=-0.4) for item Cc1ccc(S(=O)(=O)n2c3ccccc3c3nnc(C(=O)c4ccccc4)nc32)cc1
## Output label 1

## Input API: above_or_equal(metric=z-score, cutoff=-0.4) for item O=C1[C@H]2[C@H]3[C@H](O)[C@H](O)CC(=NOC[C@@H](O)COCc4ccco4)[C@H]3CC[C@H]2C(=O)N1Cc1ccccc1
## Output label 1

## Input API: above_or_equal(metric=z-score, cutoff=-0.4) for item O=C1C[C@@H](O)[C@@H](O)[C@@H]2[C@@H]3C(=O)N(Cc4ccc5c(c4)OCO5)C(=O)[C@@H]3CC[C@H]12
## Output label 1

## Input API: above_or_equal(metric=z-score, cutoff=-0.4) for item COC(=O)[C@@H]1CC[C@H](C)[C@@H](c2ccc(C)cc2)N1C(=O)c1ccc(C=NOC[C@@H](C)[C@H](OCc2ccccc2)C(C)C)cc1
## Output label 0

## Input API: above_or_equal(metric=z-score, cutoff=-0.4) for item O=C1[C@H]2[C@H]3[C@H](O)[C@H](O)CC(=NOCc4ccccc4)[C@@H]3CC[C@H]2C(=O)N1c1ccc(F)cc1F
## Output label 1
